- Measurement Notes: total protein half-life in vivo (active degradation + dilution); higher = more stable protein
- Condition Info: wild type E. coli NCM3722; growth: P-lim chemostat; doubling time 6 h
Assay Readout: total protein half-life in vivo (h)
Report as a plain number; the unit h is understood.

[[record]]
sequence_input = "MMRIALFLLTNLAVMVVFGLVLSLTGIQSSSVQGLMIMALLFGFGGSFVSLLMSKWMALRSVGGEVIEQPRNERERWLVNTVATQARQAGIAMPQVAIYHAPDINAFATGARRDASLVAVSTGLLQNMSPDEAEAVIAHEISHIANGDMVTMTLIQGVVNTFVIFISRILAQLAAGFMGGNRDEGEESNGNPLIYFAVATVLELVFGILASIITMWFSRHREFHADAGSAKLVGREKMIAALQRLKTSYEPQEATSMMALCINGKSKSLSELFMTHPPLDKRIEALRTGEYLK"
readout_unit = "h"
observed_measurement = 4.81

[[record]]
sequence_input = "MNEFFPLASAAGMTVGLAVCALIVGLALAMFFAVWESAKWRPVAWAGSALVTILRGLPEILVVLFIYFGSSQLLLTLSDGFTINLGFVQIPVQMDIENFDVSPFLCGVIALSLLYAAYASQTLRGALKAVPVGQWESGQALGLSKSAIFFRLVMPQMWRHALPGLGNQWLVLLKDTALVSLISVNDLMLQTKSIATRTQEPFTWYIVAAAIYLVITLLSQYILKRIDLRATRFERRPS [P0AE34]"
readout_unit = "h"
observed_measurement = 6.78


Let's switch to this sequence now.
Give the measured total protein half-life in vivo of MAEKRNIFLVGPMGAGKSTIGRQLAQQLNMEFYDSDQEIEKRTGADVGWVFDLEGEEGFRDREEKVINELTEKQGIVLATGGGSVKSRETRNRLSARGVVVYLETTIEKQLARTQRDKKRPLLHVETPPREVLEALANERNPLYEEIADVTIRTDDQSAKVVANQIIHMLESN [P0A6D7] .
2.62

###

- Measurement Notes: total protein half-life in vivo (active degradation + dilution); higher = more stable protein
- Condition Info: wild type E. coli NCM3722; growth: C-lim chemostat; doubling time 6 h
Listed next: entries and their corresponding total protein half-life in vivo.
Report as a plain number; the unit h is understood.

[[record]]
sequence_input = "MMKKFIAPLLALLVSGCQIDPYTHAPTLTSTDWYDVGMEDAISGSAIKDDDAFSDSQADRGLYLKGYAEGQKKTCQTDFTYARGLSGKSFPASCNNVENASQLHEVWQKGADENASTIRLN"
assay_readout = "total protein half-life in vivo"
readout_unit = "h"
observed_measurement = 5.17


Let's switch to this sequence now.
Give the measured total protein half-life in vivo of `MGKAVIAIHGGAGAISRAQMSLQQELRYIEALSAIVETGQKMLEAGESALDVVTEAVRLLEECPLFNAGIGAVFTRDETHELDACVMDGNTLKAGAVAGVSHLRNPVLAARLVMEQSPHVMMIGEGAENFAFARGMERVSPEIFSTSLRYEQLLAARKEGATVLDHSGAPLDEKQKMGTVGAVALDLDGNLAAATSTGGMTNKLPGRVGDSPLVGAGCYANNASVAVSCTGTGEVFIRALAAYDIAALMDYGGLSLAEACERVVMEKLPALGGSGGLIAIDHEGNVALPFNTEGMYRAWGYAGDTPTTGIYREKGDTVATQ` .
4.99

###

Listed next: entries and their corresponding total protein half-life in vivo.
- Measurement Notes: total protein half-life in vivo (active degradation + dilution); higher = more stable protein
- Condition Info: wild type E. coli NCM3722; growth: C-lim chemostat; doubling time 3 h
Report as a plain number; the unit h is understood.

Guide cases for total protein half-life in vivo, answers given:
[[record]]
sequence_input = "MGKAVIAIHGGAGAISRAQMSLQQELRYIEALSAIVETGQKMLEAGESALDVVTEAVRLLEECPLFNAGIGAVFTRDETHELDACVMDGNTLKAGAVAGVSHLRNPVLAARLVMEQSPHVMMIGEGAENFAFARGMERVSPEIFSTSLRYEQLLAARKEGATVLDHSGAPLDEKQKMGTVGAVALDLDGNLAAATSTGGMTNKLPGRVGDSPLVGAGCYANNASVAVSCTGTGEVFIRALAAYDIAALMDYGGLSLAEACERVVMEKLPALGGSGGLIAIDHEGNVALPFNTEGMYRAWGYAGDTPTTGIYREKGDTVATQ"
assay_readout = "total protein half-life in vivo"
observed_measurement = 2.78

[[record]]
sequence_input = "MAEKRNIFLVGPMGAGKSTIGRQLAQQLNMEFYDSDQEIEKRTGADVGWVFDLEGEEGFRDREEKVINELTEKQGIVLATGGGSVKSRETRNRLSARGVVVYLETTIEKQLARTQRDKKRPLLHVETPPREVLEALANERNPLYEEIADVTIRTDDQSAKVVANQIIHMLESN [P0A6D7]"
assay_readout = "total protein half-life in vivo"
observed_measurement = 2.24

[[record]]
sequence_input = "MFPFRRNVLAFAALLALSSPVLAGKLAIVIDDFGYRPHNENQVLAMPSAISVAVLPDSPHAREMATKAHNSGHEVLIHLPMAPLSKQPLEKNTLRPEMSSDEIERIIRSAVNNVPYAVGINNHMGSKMTSNLFGMQKVMQALERYNLYFLDSVTIGNTQAMRAAQGTGVKVIKRKVFLDDSQNEADIRVQFNRAIDLARRNGSTIAIGHPHPATVRVLQQMVYNLPPDITLVKASSLLNEPQVDTSTPPKNAVPDAPRNPFRGVKLCKPKKPIEPVYANRFFEVLSESISQSTLIVYFQHQWQGWGKQPEAAKFNASAN"
assay_readout = "total protein half-life in vivo"
observed_measurement = 3.38

[[record]]
sequence_input = "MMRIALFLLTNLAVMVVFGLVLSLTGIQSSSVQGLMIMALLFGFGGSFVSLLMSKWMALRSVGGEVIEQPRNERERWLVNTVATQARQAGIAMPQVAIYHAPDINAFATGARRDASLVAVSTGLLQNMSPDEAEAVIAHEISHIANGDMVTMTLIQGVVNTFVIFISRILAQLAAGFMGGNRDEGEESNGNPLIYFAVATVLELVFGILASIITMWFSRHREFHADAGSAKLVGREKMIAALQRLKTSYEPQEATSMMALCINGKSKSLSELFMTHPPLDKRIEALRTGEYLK"
assay_readout = "total protein half-life in vivo"
observed_measurement = 2.45


Give the measured total protein half-life in vivo of `MNNLPLLNDLRVFMLVARRAGFAAVAEELGVSPAFVSKRIALLEQTLNVVLLHRTTRRVTITEEGERIYEWAQRILQDVGQMMDELSDVRQVPQGMLRIISSFGFGRQVVAPALLALAKAYPQLELRFDVEDRLVDLVNEGVDLDIRIGDDIAPNLIARKLATNYRILCASPEFIAQHGAPKHLTDLSALPCLVIKERDHPFGVWQLRNKEGPHAIKVTGPLSSNHGEIVHQWCLDGQGIALRSWWDVSENIASGHLVQVLPEYYQPANVWAVYVSRLATSAKVRITVEFLRQYFAEHYPNFSLEHA` .
0.948

Give the measured total protein half-life in vivo of `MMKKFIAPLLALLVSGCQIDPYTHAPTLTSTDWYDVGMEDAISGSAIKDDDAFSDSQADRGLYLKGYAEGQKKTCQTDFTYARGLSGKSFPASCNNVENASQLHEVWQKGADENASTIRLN` .
1.57

###

Listed next: entries and their corresponding total protein half-life in vivo.
- Measurement Notes: total protein half-life in vivo (active degradation + dilution); higher = more stable protein
- Condition Info: wild type E. coli NCM3722; growth: N-lim chemostat; doubling time 12 h
Report as a plain number; the unit h is understood.

Guide cases for total protein half-life in vivo, answers given:
[[record]]
sequence_input = "MFPFRRNVLAFAALLALSSPVLAGKLAIVIDDFGYRPHNENQVLAMPSAISVAVLPDSPHAREMATKAHNSGHEVLIHLPMAPLSKQPLEKNTLRPEMSSDEIERIIRSAVNNVPYAVGINNHMGSKMTSNLFGMQKVMQALERYNLYFLDSVTIGNTQAMRAAQGTGVKVIKRKVFLDDSQNEADIRVQFNRAIDLARRNGSTIAIGHPHPATVRVLQQMVYNLPPDITLVKASSLLNEPQVDTSTPPKNAVPDAPRNPFRGVKLCKPKKPIEPVYANRFFEVLSESISQSTLIVYFQHQWQGWGKQPEAAKFNASAN"
readout_unit = "h"
observed_measurement = 9.34

[[record]]
sequence_input = "MATYLIGDVHGCYDELIALLHKVEFTPGKDTLWLTGDLVARGPGSLDVLRYVKSLGDSVRLVLGNHDLHLLAVFAGISRNKPKDRLTPLLEAPDADELLNWLRRQPLLQIDEEKKLVMAHAGITPQWDLQTAKECARDVEAVLSSDSYPFFLDAMYGDMPNNWSPELRGLGRLRFITNAFTRMRFCFPNGQLDMYSKESPEEAPAPLKPWFAIPGPVAEEYSIAFGHWASLEGKGTPEGIYALDTGCCWGGTLTCLRWEDKQYFVQPSNRHKDLGEAAAS"
readout_unit = "h"
observed_measurement = 5.76


Let's switch to this sequence now.
Give the measured total protein half-life in vivo of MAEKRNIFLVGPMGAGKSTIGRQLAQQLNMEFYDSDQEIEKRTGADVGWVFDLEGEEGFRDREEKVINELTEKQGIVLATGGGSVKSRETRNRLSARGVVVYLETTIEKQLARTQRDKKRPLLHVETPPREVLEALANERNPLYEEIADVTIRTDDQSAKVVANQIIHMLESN [P0A6D7] .
3.61
